# Tested on: HT-29
# Protocol description: NCI tumour cell line growth inhibition, 48 h
Active and inactive are the calls of the source. Rule as the data show it: active = GI50 up to about 1.1 µM and inactive = higher.

{"columns": ["Molecule", "Measurement target", "GI50"],
 "data": [
  ["COc1ccc(/C=N\\N(C)Cc2cccc3ccsc23)cc1", "HT-29", "49.2 µM (inactive)"],
  ["Clc1nc(Nc2nc3ccccc3[nH]2)nc(Cl)c1-c1ccccc1", "HT-29", "16.8 µM (inactive)"],
  ["CC1(C)OCC(CO)(CO)CO1", "HT-29", "> 100 µM (inactive)"],
  ["COc1ccc(OC)c2[s+]snc12", "HT-29", "> 100 µM (inactive)"],
  ["N=C1C(=N)c2ccccc2-c2ccccc21", "HT-29", "1.83 µM (inactive)"],
  ["Cc1ccc(NC(=O)CSc2nnc(-c3ccc(/N=C\\c4ccc(Cl)cc4)cc3)o2)cc1", "HT-29", "> 100 µM (inactive)"],
  ["Sc1nnc(-c2ccnc(-c3nnc(S)[nH]3)c2)[nH]1", "HT-29", "> 100 µM (inactive)"],
  ["O=c1c(S(=O)(=O)Oc2ccccc2)coc2cc(F)ccc12", "HT-29", "> 100 µM (inactive)"],
  ["Cc1cccc(/C=C2/C(=O)Nc3ccccc32)n1", "HT-29", "24.1 µM (inactive)"],
  ["c1ccc2c(CNCCCCCCCCNCc3cccc4ccccc34)cccc2c1", "HT-29", "1.8 µM (inactive)"],
  ["CC[C@@]1(O)C(=O)OCc2c1cc1n(c2=O)Cc2c-1nc1ccccc1c2/C=N/NC(=O)C[N+](C)(C)C", "HT-29", "13.2 µM (inactive)"]
]}

* * *

# Test system: SW-620
# Protocol description: NCI tumour cell line growth inhibition, 48 h
Active and inactive are the calls of the source. No stated cut-off is given here; in the data, active = GI50 up to about 1.1 µM and inactive = higher. Where a SMILES comes first, the peptide text is derived from it. The star is where a group is joined. Boc = CC(C)(C)OC(=O)*; tBu = CC(C)(C)*
Classes used: True = active, False = inactive

{"columns": ["Compound", "Class"],
 "data": [
  ["CO/N=[N+](\\[O-])NC(C)C", "False"],
  ["CC(OC(C)(C)C)C(NC(=O)C(N)CCCCNC(=O)OC(C)(C)C)C(=O)NC(Cc1ccccc1)C(=O)O (stereo not drawn) (H-Lys(Boc)-Thr(tBu)-Phe-OH; configuration not given here)", "False"],
  ["COc1cc(OC)c(OC)cc1/C=C/c1ccc2ccccc2n1", "False"],
  ["COc1ccc2c(c1)/C(=C\\c1c(C)nc3sc(C)cn13)C(=O)N2", "True"],
  ["COc1ccc(OC)c(-c2cc(C(=O)O)c3cc4ccccc4cc3n2)c1", "False"],
  ["O=C(O)C(Cc1ccccc1)NCc1c(O)ccc2c(-c3ccccc3)cc(=O)oc12 (stereo not drawn)", "False"],
  ["CN(C)[C@@H]1C(O)=C(C(=O)NCNc2nc3[nH]nnc3c(=O)[nH]2)C(=O)[C@@]2(O)C(O)=C3C(=O)c4c(O)cccc4[C@@](C)(O)[C@H]3C[C@@H]12", "True"],
  ["COC(=O)CCc1ccc2c(c1)C(=O)CC2", "False"]
]}

* * *

# System: UACC-257
# Protocol description: NCI tumour cell line growth inhibition, 48 h
Activity calls are given as the source filed them. Cut-off read from the data, not from the text of the source: active = GI50 up to about 1.1 µM and inactive = higher.

{"columns": ["Compound", "GI50"],
 "data": [
  ["O=C(c1ccccc1)C1OC12C(=O)Nc1ccccc12 (stereo unspecified)", "35.7 µM (inactive)"],
  ["O=C1CC2CCN(C(=O)c3ccccc3)CC2CCN1 (stereo unspecified)", "> 100 µM (inactive)"],
  ["O=C1C=CC(=O)C(N(CCO)CCO)=C1.O=C1C=CC2(O)OCCN(CCO)C2=C1", "> 100 µM (inactive)"],
  ["COc1ccccc1CNC(=O)[C@H](Cc1ccc(O)cn1)NC(C)=O", "> 100 µM (inactive)"],
  ["O=C1CN(c2ccccc2)Cc2nc(Cl)ccc2N1", "> 100 µM (inactive)"],
  ["COC1=C(Cl)C(=O)c2c(O)ccc(O)c2C1=O", "1.77 µM (inactive)"],
  ["Cc1ccc(NCc2nnc3c(-c4ccccc4)nc4ccccc4n23)cc1", "36 µM (inactive)"],
  ["O=c1c(S(=O)(=O)Oc2ccccc2)coc2cc(F)ccc12", "> 100 µM (inactive)"],
  ["O=[N+]([O-])C=C(c1ccc(Cl)cc1)c1ccc(Cl)cc1", "20.8 µM (inactive)"],
  ["Oc1cccc(-c2cn3cc(C(F)(F)F)ccc3n2)c1", "22.9 µM (inactive)"],
  ["Brc1cccc(Nc2ncnc3sc4c(c23)CCC2(C4)OCCO2)c1", "26.7 µM (inactive)"]
]}
